assay: Metabolic stability in Balb-C mouse blood at 21 to 32 MBq, iv after 30 mins by gamma counting; format: ADME, organism-based; details: read-out: Stability
assay.metric: remaining at 0.5 h
# output: number + unit

(Q) Given the molecule `CNc1ccc(-c2cn3c(n2)sc2cc(OCC[18F])ccc23)cc1` , what is its reported remaining at 0.5 h?
(A) 5%

====

assay: Metabolic stability in Balb-C mouse brain at 21 to 32 MBq, iv after 30 mins by gamma counting; type: ADME, organism-based; settings: read-out: Stability
assay.metric: remaining at 0.5 h (%)
Report only the number, with the unit % understood.

(Q) What value of remaining at 0.5 h has been recorded for this entry: `CNc1ccc(-c2cn3c(n2)sc2cc(OCC[18F])ccc23)cc1`
(A) 88

====

experiment: Metabolic stability in Balb-C mouse brain at 21 to 32 MBq, iv after 10 mins by gamma counting; assay type: ADME, organism-based; details: read-out: Stability
assay.metric: remaining at 10 min (%)
Answer with a number only, understood to be in %.

(Q) Param item = `CNc1ccc(-c2cn3c(n2)sc2cc(OCC[18F])ccc23)cc1` ; retrieve measured remaining at 10 min.
(A) 92
